Recorded values, source patent US20090117054A1.

# experimental-details: Pharmacokinetics of oxycodone in rabbits after intravenous and sublingual spray administration
# particulars: male, New Zealand albino, rabbit, plasma, iv, 100 ug

# molecule, Cmax
rows = [
    ("COc1ccc2c3c1O[C@H]1C(=O)CC[C@@]4(O)[C@@H](C2)N(C)CC[C@]314 [oxycodone]", "185 ng/mL"),
]

====

# experimental-details: Pharmacokinetics of oxycodone in rabbits after intravenous and sublingual spray administration
# particulars: male, New Zealand albino, rabbit, plasma, 100 μg

# compound, unit, Tmax
rows = [
    ("COc1ccc2c3c1O[C@H]1C(=O)CC[C@@]4(O)[C@@H](C2)N(C)CC[C@]314 [oxycodone]", "min", 20),
]

====

# experimental-details: Pharmacokinetics of oxycodone in rabbits after intravenous and sublingual spray administration
# particulars: male, New Zealand albino, rabbit, plasma, iv, 100 ug

# molecule, unit, half-life
measured = [
    ("COc1ccc2c3c1O[C@H]1C(=O)CC[C@@]4(O)[C@@H](C2)N(C)CC[C@]314", "h", 1.13),
]

====

# experimental-details: Pharmacokinetics of oxycodone in rabbits after intravenous and sublingual spray administration
# particulars: male, New Zealand albino, rabbit, plasma, 100 μg, pH 4
assay-readout: bioavailability (%)

# molecule, unit, measurement
measured = [
    ("COc1ccc2c3c1O[C@H]1C(=O)CC[C@@]4(O)[C@@H](C2)N(C)CC[C@]314 [oxycodone]", "%", 45.4),
]

====

# experimental-details: Pharmacokinetics of oxycodone in rabbits after intravenous and sublingual spray administration
# particulars: male, New Zealand albino, rabbit, plasma, 100 μg, pH 9

# compound, bioavailability [%]
records = [
    ("COc1ccc2c3c1O[C@H]1C(=O)CC[C@@]4(O)[C@@H](C2)N(C)CC[C@]314 [oxycodone]", 70.1),
]

====

# experimental-details: Pharmacokinetics of oxycodone in rabbits after intravenous and sublingual spray administration
# particulars: male, New Zealand albino, rabbit, plasma, iv, 100 ug

# molecule, unit, AUC(0-inf)
rows = [
    ("COc1ccc2c3c1O[C@H]1C(=O)CC[C@@]4(O)[C@@H](C2)N(C)CC[C@]314 [oxycodone]", "ng·h/mL", 213),
]
